This listing pairs variants with measured protein stability index.
B1: VTI1B (parent)
chain: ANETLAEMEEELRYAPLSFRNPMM

variants of: B1; assay: protein stability index of a GFP-peptide fusion (GPS, HEK-293T) (PSI 1-6); higher = more stable; conditions: c terminus: a fixed tail appended;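 further: lentivirally expressed fusions sorted by FACS into six bins by GFP to DsRed ratio, PSI derived from sequencing read proportions per bin multiplied by bin number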

// below: answered variants
L17C 3.58
E9A 2.44
M24H 3.26
P16C 1.92
A1D 2.69
E7F 2.1

Param item = E10R ; retrieve measured protein stability index.
1.17

Param item = A15C ; retrieve measured protein stability index.
1.64

Param item = L5W ; retrieve measured protein stability index.
2.01

Param item = E10L ; retrieve measured protein stability index.
2.05

Param item = Y14W ; retrieve measured protein stability index.
1.32
